Tested on: CEM cells HIV-1 protection, formazan growth assay
METHOD_SUMMARY: NCI AIDS Antiviral Assay
TEST_CONTEXT: measured here: growth of uninfected CEM cells
Method: The ability of compounds to protect human CEM cells from HIV-1 infection is measured as a screen for new compounds capable of inhibiting the HIV virus. Five concentrations of drug were tested on uninfected and infected cells and cell growth was measured using a soluble formazan assay. […] Compounds that provided at least 50% protection were retested. Compounds that provided at least 50% protection on retest were listed as moderately active. […]
Listed molecules paired with reported IC50

{"columns": ["MOLECULE", "ASSAYED_TARGET", "IC50"],
 "data": [
  ["CC(C)COC(=O)c1ccc(N=Cc2ccc(C=Nc3ccc(C(=O)OCC(C)C)cc3)cc2)cc1", "CEM cells HIV-1 protection, formazan growth assay", "> 10.7 µM"],
  ["CC(C)(C)NC(NC(C)(C)C)=C(C(Cl)=C(Cl)Cl)[N+](=O)[O-]", "CEM cells HIV-1 protection, formazan growth assay", "> 200 µM"],
  ["O=C(O)CC1CC=CCC1CC(=O)O (stereo not given)", "CEM cells HIV-1 protection, formazan growth assay", "> 200 µM"],
  ["Cn1c(C2CCCc3c2c2ccccc2n3C)cc2ccccc21 (stereo not given)", "CEM cells HIV-1 protection, formazan growth assay", "> 16.6 µM"],
  ["COCN1C(=O)[C@@H]2CCCN2C(=O)c2cc(Cl)ccc21", "CEM cells HIV-1 protection, formazan growth assay", "> 200 µM"]
]}

---

Tested on: CEM cells HIV-1 protection, formazan growth assay
METHOD_SUMMARY: NCI AIDS Antiviral Assay
TEST_CONTEXT: measured here: growth of uninfected CEM cells
pIC50: −log10 of the molar value.
Listed compounds paired with reported pIC50

{"columns": ["COMPOUND", "ASSAYED_TARGET", "pIC50"],
 "data": [
  ["CC[C@H]1C2OC(=O)[C@H](C)C2[C@@]2(O)C[C@@H]([C@@H]3C[C@H](C)C(=O)O3)N3CCCC[C@@]12C3=O (some centres not stated)", "CEM cells HIV-1 protection, formazan growth assay", "< 3.70"],
  ["CC1(C)CCc2c(cc3c(c2O)CCC(C)(C)O3)O1", "CEM cells HIV-1 protection, formazan growth assay", "< 3.70"],
  ["C/C(CN1C(=O)c2ccccc2C1=O)=N\\NS(=O)(=O)c1cccc([N+](=O)[O-])c1", "CEM cells HIV-1 protection, formazan growth assay", "< 3.21"],
  ["COc1c[c]([Hg][O]C(C)=O)c(OC)c(NC(=O)CC(C)=O)[c]1[Hg][O]C(C)=O", "CEM cells HIV-1 protection, formazan growth assay", "< 6.14"],
  ["Cc1cc2c(cc1C)NC(=O)C(NC(=O)c1ccc(Cl)cc1)C=N2 (configuration not stated)", "CEM cells HIV-1 protection, formazan growth assay", "< 3.70"],
  ["O=C(O)Cc1ccc(Nc2nc3ccccc3nc2C(=O)O)cc1", "CEM cells HIV-1 protection, formazan growth assay", "< 3.70"],
  ["CSCCCS/C1=C/CCCCCCCCCC1", "CEM cells HIV-1 protection, formazan growth assay", "< 3.70"],
  ["COc1cc(C2SCC(=O)N2NC(=O)c2ccc(NC(C)=O)cc2)cc(OC)c1OC (configuration not stated)", "CEM cells HIV-1 protection, formazan growth assay", "< 4.23"],
  ["NCC1(N2CCOCC2)C2CCCC21CNc1ccccc1 (configuration not stated)", "CEM cells HIV-1 protection, formazan growth assay", "< 4.62"],
  ["CN(CC1NCCCC1O)C12CC3CC(CC(C3)C1)C2 (configuration not stated)", "CEM cells HIV-1 protection, formazan growth assay", "< 3.05"],
  ["Cc1cc(NS(=O)(=O)c2ccc(Nc3c4ccccc4nc4c(C(=O)N5CCN(CCOS(C)(=O)=O)CC5)cccc34)cc2)no1", "CEM cells HIV-1 protection, formazan growth assay", "< 4.35"],
  ["Nc1c(S(=O)(=O)O)cc2cc(S(=O)(=O)O)ccc2c1N=Nc1ccc(S(=O)(=O)c2ccc(N=Nc3c(N)c(S(=O)(=O)O)cc4cc(S(=O)(=O)O)ccc34)cc2)cc1", "CEM cells HIV-1 protection, formazan growth assay", "< 4.19"]
]}
